Values compiled from patent US20050245399A1.

- Tested on: barnyardgrass (Echinochloa crus-galli L.): ECHCG
- method.description: Test Example 1 pre-emergence herbicidal activity, ECHCG
- Assay type: in vivo
- condition.info: Rate 63 g a.i./ha, visually observed 20th to 23rd day after application
Each record here notes measured Pre-emergence Herbicidal Activity ECHCG (growth controlling degree).
Reply with the number, then its unit.

Documented Pre-emergence Herbicidal Activity ECHCG (growth controlling degree) of `COc1c(Cl)cc(F)c(-c2nn(C)c(OC(F)F)c2Cl)c1NC(=O)c1ccc(F)cc1` : 90%

// `COc1c(Cl)cc(F)c(-c2nn(C)c(OC(F)F)c2Cl)c1N(C=O)CC(=O)c1ccc(Cl)cc1` : Pre-emergence Herbicidal Activity ECHCG (growth controlling degree) value = 80%

Field Pre-emergence Herbicidal Activity ECHCG (growth controlling degree) (entry `COc1c(Cl)cc(F)c(-c2nn(C)c(OC(F)F)c2Cl)c1NC(=O)c1ccccc1Cl` ) reads 80%

Reported Pre-emergence Herbicidal Activity ECHCG (growth controlling degree) ( `COc1c(Cl)cc(F)c(-c2nn(C)c(OC(F)F)c2Cl)c1NC(=O)C(C)=Cc1ccccc1` ) = 0%

Value of measured Pre-emergence Herbicidal Activity ECHCG (growth controlling degree) for the entry `COc1ccc(C(=O)Nc2c(OC)c(Cl)cc(F)c2-c2nn(C)c(OC(F)F)c2Cl)cc1` : 80%

molecule `COc1c(Cl)cc(F)c(-c2nn(C)c(OC(F)F)c2Cl)c1NC(=O)C=Cc1ccc(C)cc1` , Pre-emergence Herbicidal Activity ECHCG (growth controlling degree) observed: 0%

In plain terms, `COc1c(Cl)cc(F)c(-c2nn(C)c(OC(F)F)c2Cl)c1N(C=O)C1CCCC1` has a documented Pre-emergence Herbicidal Activity ECHCG (growth controlling degree) of 90%

Short answer for `Cn1nc(-c2c(F)cc(Cl)c(OC(F)F)c2NS(C)(=O)=O)c(Cl)c1OC(F)F` : Pre-emergence Herbicidal Activity ECHCG (growth controlling degree) was 0%

Memo: `COCCOC(=O)Nc1c(OC)c(Cl)cc(F)c1-c1nn(C)c(OC(F)F)c1Cl` , reported Pre-emergence Herbicidal Activity ECHCG (growth controlling degree): 100%

Summary for this molecule, `COc1c(Cl)cc(F)c(-c2nn(C)c(OC(F)F)c2Cl)c1NC(=O)CCc1ccccc1` : Pre-emergence Herbicidal Activity ECHCG (growth controlling degree) is 95%

Please fill in: Pre-emergence Herbicidal Activity ECHCG (growth controlling degree) reported for `COc1c(Cl)cc(F)c(-c2nn(C)c(OC(F)F)c2Cl)c1NC(=O)CC(C)(C)C` = 20%

So, `Cn1nc(-c2c(F)cc(Cl)c(OC(F)F)c2N)c(Cl)c1OC(F)F` ? Its Pre-emergence Herbicidal Activity ECHCG (growth controlling degree) was 90%

get_value(item= `COc1c(Cl)cc(F)c(-c2nn(C)c(OC(F)F)c2Cl)c1NC(=O)OC(C)C` , readout=Pre-emergence Herbicidal Activity ECHCG (growth controlling degree)) returns 70%

molecule `COc1c(Cl)cc(F)c(-c2nn(C)c(OC(F)F)c2Cl)c1NC(=O)COc1ccccc1` , Pre-emergence Herbicidal Activity ECHCG (growth controlling degree) observed: 70%

Item: `COc1c(Cl)cc(F)c(-c2nn(C)c(OC(F)F)c2Cl)c1NC(=O)CCc1ccccc1C` | Pre-emergence Herbicidal Activity ECHCG (growth controlling degree): 60%

# Pre-emergence Herbicidal Activity ECHCG (growth controlling degree) (molecule: `COc1c(Cl)cc(F)c(-c2nn(C)c(OC(F)F)c2Cl)c1NC(=O)c1ccc(C#N)cc1` ) is 95%
